Cited source: paper PMC6155721

Test system: human follicle dermal papilla cells (HFDPC)
Experiment: Human follicle dermal papilla cell (HFDPC) proliferation, MTT assay
Type: cell-based
Conditions: Homo sapiens, 96 h, 50 μM; percentage of control value; four days incubation
METRIC NAME: viability at 50 µM (%)

[[record]]
compound = "O=C(O)C1OC(Oc2c(-c3ccc(O)cc3)oc3cc(O)cc(O)c3c2=O)C(O)C(O)C1O [KOG, kaempferol-3-O-β-D-glucuronide]"
metric_name = "viability at 50 µM"
data_value = 158

[[record]]
compound = "C=C1CC2CC(C)(C)C(C)(C)CN2CC1CCCCC/C=C/C (stereo not shown) [TMOQ]"
metric_name = "viability at 50 µM"
data_value = 104

[[record]]
compound = "C=C1CCC2C(C)(C)CCCC2(C)C1C/C=C(/C=O)CC=O (stereo not shown) [Labdadiene, 8(17),12-Labdadiene-15,16-dial]"
metric_name = "viability at 50 µM"
data_value = 197

[[record]]
compound = "CO/C=C/C=C/C=C/C1C=CC(/C=C/C=C/C=C/OC)O1 (stereo not shown) [MTD]"
metric_name = "viability at 50 µM"
data_value = 190

